src = PubChem BioAssay AID2060901

Below: a set of entries, each annotated with reported viability, T/C.
Tested on: 422866-222-R5-J1-PDC complex spheroids viability
Assay: Anticancer human tumor 422866-222-R5-J1-PDC patient-derived pancreatic adenocarcinoma cell line growth inhibition [RAS]
Conditions: second compound 0.00316 µM; first compound 0.316 µM; stronger effect = lower value

Worked cases, viability, T/C given:
molecule | result
CC(C)NCC(C(=O)N1CCN(c2ncnc3c2C(C)CC3O)CC1)c1ccc(Cl)cc1 (stereo not drawn) + C=CC(=O)N1CCN(c2nc(OCC3CCCN3C)nc3c(F)c(-c4nc(N)cc(C)c4C(F)(F)F)c(Cl)cc23)C(C)C1 | 19.7%
Nc1ccn(C2OC(CO)C(O)C2(F)F)c(=O)n1 (stereo not drawn) + C=CC(=O)N1CCN(c2nc(OCC3CCCN3C)nc3c(F)c(-c4nc(N)cc(C)c4C(F)(F)F)c(Cl)cc23)C(C)C1 | 14.8%

Proceeding to the next molecule to report its viability, T/C.
### Prompt Entry under review: C[C@@H](NC(=O)c1ncnc(N)c1Cl)c1ncc(C(=O)Nc2cc(C(F)(F)F)c(Cl)cn2)s1 + C=CC(=O)N1CCN(c2nc(OCC3CCCN3C)nc3c(F)c(-c4nc(N)cc(C)c4C(F)(F)F)c(Cl)cc23)C(C)C1 . Reported viability, T/C?
### Response 31.7%

###

Listed here are compounds together with their documented viability, T/C.
Test system: 422866-222-R5-J1-PDC complex spheroids viability
Experiment: Anticancer human tumor 422866-222-R5-J1-PDC cell line growth inhibition [RAS];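 also: spheroids exposed to compounds for 7 days; 100% = DMSO vehicle control viability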
Details: second compound 0.03 µM; first compound 0.316 µM; stronger effect = lower value

compound | viability, T/C
Cc1nc(N2CCC3(CC2)COC(C)C3N)c(CO)nc1Sc1ccnc(N)c1Cl (configuration not stated) + CCn1c(-c2cccnc2C(C)OC)c2c3cc(ccc31)N1CCOC(CC(NC(=O)C(C(C)C)N(C)C(=O)C3(F)CCN(C(=O)C#CC(C)(C)N(C)C)CC3)C(=O)N3CCCC(N3)C(=O)OCC(C)(C)C2)C1 | 12.8%

Query compound follows.
### Prompt viability, T/C lookup needed for CCC(CC)c1cc(NC2CCC(N)C2)n2nccc2n1 (configuration not stated) + CCn1c(-c2cc(N3CCN(C)CC3)cnc2C(C)OC)c2c3cc(ccc31)-c1csc(n1)CC(NC(=O)C1CC1C)C(=O)N1CCCC(N1)C(=O)OCC(C)(C)C2 , thanks.
### Response 24.9%

###

Test system: 422866-222-R5-J1-PDC complex spheroids viability
Assay: Anticancer human tumor 422866-222-R5-J1-PDC cell line growth inhibition [RAS];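 also: spheroids exposed to compounds for 7 days; 100% = DMSO vehicle control viability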
Details: second compound 1 µM; first compound 0.00949 µM; stronger effect = lower value
From the text: RAS pathway inhibitors in Combinations in Complex Spheroids A high-throughput screen of multi-cell type tumor spheroids was designed to identify active combinations of RAS pathway inhibitors and targeted small molecules. Complex spheroids include a stromal component modeled by human endothelial cells (HUVEC) and fibroblasts modeled by human mesenchymal stem cells (MSCs). […] Compounds. […] If the clinical Cmax for an agent had not been determined, the highest concentration tested was 10 microM. […]
Reported viability, T/C by item:
I only need the number, in %, no unit after it.

### Prompt Can you look up the measured viability, T/C of CC1(C)CCC(Nc2ncc(C(F)(F)F)c(-c3c[nH]c4c(P(C)(C)=O)c(C#N)ccc34)n2)CN1 (centres undefined) + C#Cc1c(F)ccc2cc(O)cc(-c3ncc4c(N5CC6CCC(C5)N6)nc(OCC56CCCN5CC(F)C6)nc4c3F)c12 for me?
### Response 40.3
